These measurements were taken from paper doi:10.1101/757047v1.

study_system: UniProtKB O14976
Sequence (O14976 12-347 limits assumed): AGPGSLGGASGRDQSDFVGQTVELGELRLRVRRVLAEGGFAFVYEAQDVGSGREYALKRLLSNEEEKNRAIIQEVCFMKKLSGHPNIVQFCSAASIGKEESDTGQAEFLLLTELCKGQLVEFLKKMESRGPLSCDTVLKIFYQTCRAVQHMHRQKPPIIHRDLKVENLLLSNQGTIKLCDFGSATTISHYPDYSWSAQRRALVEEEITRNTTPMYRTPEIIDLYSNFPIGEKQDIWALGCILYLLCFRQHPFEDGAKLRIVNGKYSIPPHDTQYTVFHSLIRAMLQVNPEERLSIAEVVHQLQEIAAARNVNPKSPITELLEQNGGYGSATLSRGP
assay_info: biochemical
condition_context: read-out: GAK Ki; binder
property_label: Ki (nM)
Only the number, expressed in nM, is required.

Task: Which Ki is listed for COc1cc2ncc(C#N)c(Nc3cc(OC)c(OC)c(OC)c3)c2cc1OC [compound 48, 48] ?
Output: 0.85

----------
study_system: SLK (Homo sapiens, UniProt Q9H2G2)
Sequence (Q9H2G2 34-292): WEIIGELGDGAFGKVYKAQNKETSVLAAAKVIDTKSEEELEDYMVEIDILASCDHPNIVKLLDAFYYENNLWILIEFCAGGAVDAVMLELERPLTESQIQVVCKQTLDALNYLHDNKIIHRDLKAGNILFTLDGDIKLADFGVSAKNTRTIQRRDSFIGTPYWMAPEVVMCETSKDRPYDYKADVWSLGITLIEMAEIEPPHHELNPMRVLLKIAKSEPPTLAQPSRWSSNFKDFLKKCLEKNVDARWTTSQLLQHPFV
assay_info: biochemical
property_label: Ki (nM)
Only the number, expressed in nM, is required.

Solved cases (3 shown):
[[record]]
molecule = "COc1cc(Nc2c(C#N)cnc3ccc(Cl)cc23)cc(OC)c1OC [compound 44, 44]"
reported = 53000

[[record]]
molecule = "COc1cc(Nc2c(C#N)cnc3ccc(Br)cc23)cc(OC)c1OC [compound 45, 45]"
reported = 9400

[[record]]
molecule = "COc1cc(Nc2c(C#N)cnc3cc(I)ccc23)cc(OC)c1OC [compound 52, 52]"
reported = 490


Task: Which Ki is listed for COc1cc(Nc2c(C#N)cnc3ccc(I)cc23)cc(OC)c1OC [compound 46, 46] ?
Output: 9700

Task: Which Ki is listed for COc1cc(Nc2c(C#N)cnc3ccccc23)cc(OC)c1OC [compound 43, 43] ?
Output: 7700

Task: Which Ki is listed for COc1cc(Nc2c(C#N)cnc3cc(Cl)ccc23)cc(OC)c1OC [compound 50, 50] ?
Output: 1400

Task: Which Ki is listed for COc1cc(Nc2c(C#N)cnc3cc(Br)ccc23)cc(OC)c1OC [compound 51, 51] ?
Output: 710

Task: Which Ki is listed for COc1cc(Nc2c(C#N)cnc3ccc(S(C)(=O)=O)cc23)cc(OC)c1OC [compound 49, 49] ?
Output: 1200

Task: Which Ki is listed for COc1ccc2c(Nc3cc(OC)c(OC)c(OC)c3)c(C#N)cnc2c1 [compound 53, 53] ?
Output: 2100

Task: Which Ki is listed for COc1ccc2ncc(C#N)c(Nc3cc(OC)c(OC)c(OC)c3)c2c1 [compound 47, 47] ?
Output: 3200

----------
study_system: UniProt Q9H2G2
assay_info: biochemical
property_label: Ki (nM)
Only the number, expressed in nM, is required.

[[record]]
structure_smiles = "C#Cc1cc(Nc2ncnc3cc(I)ccc23)ccc1Cl"
reported = 930


Task: Which Ki is listed for C#Cc1cc(Nc2ncnc3cc(I)ccc23)ccc1F ?
Output: 110

Task: Which Ki is listed for C#Cc1cc(Nc2ncnc3ccc(I)cc23)ccc1F ?
Output: 1600

Task: Which Ki is listed for C#Cc1cccc(Nc2ncnc3cc(I)ccc23)c1F ?
Output: 860

Task: Which Ki is listed for C#Cc1cc(Nc2ncnc3ccc(I)cc23)ccc1Cl ?
Output: 7100

----------
study_system: UniProtKB Q9H2G2
assay_info: biochemical
In this section, each of the molecules is paired with its reported Ki.

Solved cases (5 shown):
[[record]]
structure_smiles = "Fc1ccccc1Nc1ccnc2ccc(Br)cc12"
reported = "> 55 µM"

[[record]]
structure_smiles = "Fc1ccc(Nc2ccnc3ccc(Br)cc23)cc1"
reported = "36 µM"

[[record]]
structure_smiles = "Fc1cc(F)cc(Nc2ccnc3ccc(Br)cc23)c1"
reported = "> 55 µM"

[[record]]
structure_smiles = "Fc1cc(Nc2ccnc3ccc(Br)cc23)cc(F)c1F"
reported = "> 55 µM"

[[record]]
structure_smiles = "Brc1cccc(Nc2ccnc3ccc(Br)cc23)c1"
reported = "> 55 µM"


Task: Which Ki is listed for Fc1ccc(Nc2ccnc3ccc(Br)cc23)cc1F ?
Output: > 55 µM

Task: Which Ki is listed for Brc1cccc(Nc2ncnc3ccc(Br)cc23)c1 ?
Output: 9.4 µM

Task: Which Ki is listed for Fc1ccc(Nc2ncnc3ccc(Br)cc23)cc1 ?
Output: > 55 µM

Task: Which Ki is listed for Fc1cccc(Nc2ccnc3ccc(Br)cc23)c1 ?
Output: > 55 µM
